Collected Maximum inhibition rate (%) values appear next to each entry.
tested_target: T1, human VEGFA165 (human, UniProt P15692-4 27-191)
T1 construct: Bought protein from two suppliers, treated as one molecule; the supplier is named under assay; also called antigen VEGFA
T1 sequence (P15692 other isoform, or with tags, fused parts or gaps limits assumed): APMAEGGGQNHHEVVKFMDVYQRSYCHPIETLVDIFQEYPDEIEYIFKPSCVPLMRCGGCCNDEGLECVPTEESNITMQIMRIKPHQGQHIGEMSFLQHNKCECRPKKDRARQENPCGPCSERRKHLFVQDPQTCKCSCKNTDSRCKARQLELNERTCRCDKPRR
experiment_description: competitive ELISA, coated VEGFA, competitor VEGFR2-ECD-Fc 1 nM
Please respond with the number in % and leave the unit unwritten.

Some entries whose results are on file:
2V15-9S (VHH, Tandem bivalent nanobody) QLQLVESGGGSVQPGGSLRLSCEVSGRTFASYTMGWFRQAPGKEREFVVAISKGGYKYDSVSLEARFTISKDNTKNTVYLQMNSLKPEDTAVYYCAGTRAYGSSRLRLAETYEYWGQGTQVTVSSSSSSSSSSSQLQLVESGGGSVQPGGSLRLSCEVSGRTFASYTMGWFRQAPGKEREFVVAISKGGYKYDSVSLEARFTISKDNTKNTVYLQMNSLKPEDTAVYYCAGTRAYGSSRLRLAETYEYWGQGTQVTVSS :: 88.8
2V15-30GS (VHH, Tandem bivalent nanobody) QLQLVESGGGSVQPGGSLRLSCEVSGRTFASYTMGWFRQAPGKEREFVVAISKGGYKYDSVSLEARFTISKDNTKNTVYLQMNSLKPEDTAVYYCAGTRAYGSSRLRLAETYEYWGQGTQVTVSSGGGGSGGGSGGGGSGGGSGGGSGGGSGGGSQLQLVESGGGSVQPGGSLRLSCEVSGRTFASYTMGWFRQAPGKEREFVVAISKGGYKYDSVSLEARFTISKDNTKNTVYLQMNSLKPEDTAVYYCAGTRAYGSSRLRLAETYEYWGQGTQVTVSS :: 94.1
2V15-25GS (VHH, Tandem bivalent nanobody) QLQLVESGGGSVQPGGSLRLSCEVSGRTFASYTMGWFRQAPGKEREFVVAISKGGYKYDSVSLEARFTISKDNTKNTVYLQMNSLKPEDTAVYYCAGTRAYGSSRLRLAETYEYWGQGTQVTVSSGGGGSGGGSGGGSGGGSGGGSGGGSQLQLVESGGGSVQPGGSLRLSCEVSGRTFASYTMGWFRQAPGKEREFVVAISKGGYKYDSVSLEARFTISKDNTKNTVYLQMNSLKPEDTAVYYCAGTRAYGSSRLRLAETYEYWGQGTQVTVSS :: 94.5
2V15-20S (VHH, Tandem bivalent nanobody) QLQLVESGGGSVQPGGSLRLSCEVSGRTFASYTMGWFRQAPGKEREFVVAISKGGYKYDSVSLEARFTISKDNTKNTVYLQMNSLKPEDTAVYYCAGTRAYGSSRLRLAETYEYWGQGTQVTVSSSSSSSSSSSSSSSSSSSSSSQLQLVESGGGSVQPGGSLRLSCEVSGRTFASYTMGWFRQAPGKEREFVVAISKGGYKYDSVSLEARFTISKDNTKNTVYLQMNSLKPEDTAVYYCAGTRAYGSSRLRLAETYEYWGQGTQVTVSS :: 89.8
2V15-EAAAK-Turn (VHH, Tandem bivalent nanobody) QLQLVESGGGSVQPGGSLRLSCEVSGRTFASYTMGWFRQAPGKEREFVVAISKGGYKYDSVSLEARFTISKDNTKNTVYLQMNSLKPEDTAVYYCAGTRAYGSSRLRLAETYEYWGQGTQVTVSSPDSEAAAKEAAAKEAAAKEAAAKEAAAKPDGSSQLQLVESGGGSVQPGGSLRLSCEVSGRTFASYTMGWFRQAPGKEREFVVAISKGGYKYDSVSLEARFTISKDNTKNTVYLQMNSLKPEDTAVYYCAGTRAYGSSRLRLAETYEYWGQGTQVTVSS :: 96.7
2V15-9GS (VHH, Tandem bivalent nanobody) QLQLVESGGGSVQPGGSLRLSCEVSGRTFASYTMGWFRQAPGKEREFVVAISKGGYKYDSVSLEARFTISKDNTKNTVYLQMNSLKPEDTAVYYCAGTRAYGSSRLRLAETYEYWGQGTQVTVSSGGGGSGGGSQLQLVESGGGSVQPGGSLRLSCEVSGRTFASYTMGWFRQAPGKEREFVVAISKGGYKYDSVSLEARFTISKDNTKNTVYLQMNSLKPEDTAVYYCAGTRAYGSSRLRLAETYEYWGQGTQVTVSS :: 88.4

Below: the item to evaluate.
Q: Quick one: Maximum inhibition rate (%) for 2V1-3GS (VHH, Tandem bivalent nanobody) QLQLVESGGGSVQPGGSLRLSCEVSGRTFSSYTMGWFRQAPGKEREFVVAISKGGYKYDSVSLEARFTISKDNTKNTVYLQMNSLKPEDTAVYYCAATRAYGSSRLRLADTYEYWGQGTQVTVSSGGSQLQLVESGGGSVQPGGSLRLSCEVSGRTFSSYTMGWFRQAPGKEREFVVAISKGGYKYDSVSLEARFTISKDNTKNTVYLQMNSLKPEDTAVYYCAATRAYGSSRLRLADTYEYWGQGTQVTVSS ?
Result: 91
